Value source: patent EP0091796A1

Parameter: pKa. Scope: all listed entries.
Assay: pKa determination in 66% DMF/H2O
Settings: 66% dmf/h2o, pKa; single or first (lower) pKa
Form rule: numeric answer, no unit written next to it.

Below are worked cases with known answers.
compound | pKa
CC=C(c1ccccc1)c1ccc2nc(N)[nH]c2c1 [Example 2] | 6.98
Nc1nc2ccc(C(=O)c3ccccc3)cc2[nH]1 [Example 8, 2-amino-5(6)-benzoylbenzimidazole] | 5.7
C/C=C(\c1ccccc1)c1ccc2nc(N)[nH]c2c1 [Example 3] | 7.05
C=C(c1ccccc1)c1ccc2nc(N)[nH]c2c1 [Example 6] | 6.8

Alright, here's another compound for you.
Q: If you can, please state the reported pKa value of CON=C(c1ccccc1)c1ccc2nc(N)[nH]c2c1 [Example 1] .
Result: 8.88
